# assayed.system: wild-type Choristoneura fumiferana EcR (D, E and F domains) (Choristoneura fumiferana, UniProt O77240)
# Format: cell-based
# study.conditions: R; WT-CtEcR, 3T3 Cells; relative to GS-E ligand
measurement.type: RMFI (relative maximum fold induction)
Enter the number alone.

For the compound `Cc1cc(C)cc(C(=O)N(NC(=O)OCc2ccccc2)[C@H](CCCO)C(C)(C)C)c1` , what RMFI (relative maximum fold induction) is on record?
0.02

For the compound `CCC[C@@H](N(NC(=O)c1ccc(OC)cc1)C(=O)c1cc(C)cc(C)c1)C(C)(C)C` , what RMFI (relative maximum fold induction) is on record?
0.73

For the compound `C=CC[C@@H](CCc1ccccc1)N(NC(=O)c1ccc(CC)cc1)C(=O)c1cc(C)cc(C)c1` , what RMFI (relative maximum fold induction) is on record?
0.14

For the compound `CCC[C@@H](N(NC(=O)c1ccc(OC)c(OC)c1)C(=O)c1cc(C)cc(C)c1)C(C)(C)C` , what RMFI (relative maximum fold induction) is on record?
0.27

For the compound `CCC[C@H](C1CCCCC1)N(NC(=O)c1cccc(OC)c1CC)C(=O)c1cc(C)cc(C)c1` , what RMFI (relative maximum fold induction) is on record?
0.38

For the compound `CCC[C@@H](N(NC(=O)c1cccc(OC)c1)C(=O)c1cc(C)cc(C)c1)C(C)(C)C` , what RMFI (relative maximum fold induction) is on record?
0.81

For the compound `CCC[C@@H](N(NC(=O)c1ccccc1OC)C(=O)c1cc(C)cc(C)c1)C(C)(C)C` , what RMFI (relative maximum fold induction) is on record?
0.38

For the compound `CCC[C@@H](N(NC(=O)c1cccc(OC)c1CC)C(=O)c1cc(C)cc(C)c1)C(C)(C)C` , what RMFI (relative maximum fold induction) is on record?
0.97

For the compound `CCC[C@@H](N(NC(=O)c1cccc(OC)c1C)C(=O)c1cc(C)cc(C)c1)C(C)(C)C` , what RMFI (relative maximum fold induction) is on record?
1.08
